molecular target: protein kinase B (PKB); assay: cell-based or functional assay
Square brackets hold non-standard residues; d marks the D form. Ends that are not written are not given here. hLeu = CC(C)CC[C@H](N)C(=O)O; Nva = CCC[C@H](N)C(=O)O; Dap = NC[C@H](N)C(=O)O
MEASURED_QUANTITY: % Inhibition of PKB activity at 1 µM (%)

• [dK][dK][dK][dK][dK][dK][dK][dK]RPR[Nva]Y[Dap][hLeu]-NH2 (N-terminus assumed; SMILES CCC[C@H](NC(=O)[C@H](CCCNC(=N)N)NC(=O)[C@@H]1CCCN1C(=O)[C@H](CCCNC(=N)N)NC(=O)[C@@H](CCCCN)NC(=O)[C@@H](CCCCN)NC(=O)[C@@H](CCCCN)NC(=O)[C@@H](CCCCN)NC(=O)[C@@H](CCCCN)NC(=O)[C@@H](CCCCN)NC(=O)[C@@H](CCCCN)NC(=O)[C@H](N)CCCCN)C(=O)N[C@@H](Cc1ccc(O)cc1)C(=O)N[C@@H](CN)C(=O)N[C@@H](CCC(C)C)C(N)=O) [MPS ab60025-82] = 78
• [dR][dR][dR][dR][dR][dR][dR]RPR[Nva]Y[Dap][hLeu]-NH2 (N-terminus assumed; SMILES CCC[C@H](NC(=O)[C@H](CCCNC(=N)N)NC(=O)[C@@H]1CCCN1C(=O)[C@H](CCCNC(=N)N)NC(=O)[C@@H](CCCNC(=N)N)NC(=O)[C@@H](CCCNC(=N)N)NC(=O)[C@@H](CCCNC(=N)N)NC(=O)[C@@H](CCCNC(=N)N)NC(=O)[C@@H](CCCNC(=N)N)NC(=O)[C@@H](CCCNC(=N)N)NC(=O)[C@H](N)CCCNC(=N)N)C(=O)N[C@@H](Cc1ccc(O)cc1)C(=O)N[C@@H](CN)C(=O)N[C@@H](CCC(C)C)C(N)=O) [MPS ab60025-94] = 76
• RQIKIWFQNRRMKWKKRPRXYXX (Nva, Dap, Hol of the 6154 part) [MPS ab60025-2] = 60
• RQIKIWFQNRRMKWKKRPRXYAX (Nva, Hol of the 6184 part) [MPS ab60025-4] = 80

// data source = patent US20070078092A1
